- Target Desc: T1, human IL-18BP (interleukin-18 binding protein, isoform A) (human, UniProt O95998 31-194)
- T1 construct: cell assays used Sino Biological 10357-H08H; PBMC assay 1 relies on endogenous IL-18BP; UniProt number is printed as 095998; also called hIL-18BP
- T1 sequence: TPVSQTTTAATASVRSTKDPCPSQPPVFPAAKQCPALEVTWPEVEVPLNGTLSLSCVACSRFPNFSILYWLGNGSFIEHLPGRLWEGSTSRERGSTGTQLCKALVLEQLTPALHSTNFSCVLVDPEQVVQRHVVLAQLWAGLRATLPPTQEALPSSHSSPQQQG
- Test Summary: BLI single-concentration screen, apparent KD
Metric Name: pKd
Scale: pKd equals -log10([C]), with [C] in mol/L.

Reported pKd ( SA301a heavy chain variant N33bV, C34S (antibody, human IgG1, V domains shown, library variant, human IgG1/kappa, from supernatant) VH: QVQLQESGPGLVKPSQTLSLTCTVSGYSITSDYVSHWIRQPPGKGLEWIGYIHYSGSTNYNPSLKSRVTISRDTSKNQFSLKLSSVTAADTAVYYCARNYGSIYVNYFDYWGQGTLVTVSS VL: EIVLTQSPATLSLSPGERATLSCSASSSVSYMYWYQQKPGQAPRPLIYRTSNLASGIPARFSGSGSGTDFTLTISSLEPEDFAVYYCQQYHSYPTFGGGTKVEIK ) = 9.40

Reported pKd ( heavy chain library variant C34H (antibody, V domains shown) VH: QVQLQESGPGLVKPSQTLSLTCTVSGYSITSDYNHHWIRQPPGKGLEWIGYIHYSGSTNYNPSLKSRVTISRDTSKNQFSLKLSSVTAADTAVYYCARNYGSIYVNYFDYWGQGTLVTVSS VL: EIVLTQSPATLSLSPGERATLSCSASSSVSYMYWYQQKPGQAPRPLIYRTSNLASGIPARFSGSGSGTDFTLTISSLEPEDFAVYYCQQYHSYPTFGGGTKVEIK ) = 9.40

Reported pKd ( SA301a heavy chain variant N33bM, C34S (antibody, human IgG1, V domains shown, library variant, human IgG1/kappa, from supernatant) VH: QVQLQESGPGLVKPSQTLSLTCTVSGYSITSDYMSHWIRQPPGKGLEWIGYIHYSGSTNYNPSLKSRVTISRDTSKNQFSLKLSSVTAADTAVYYCARNYGSIYVNYFDYWGQGTLVTVSS VL: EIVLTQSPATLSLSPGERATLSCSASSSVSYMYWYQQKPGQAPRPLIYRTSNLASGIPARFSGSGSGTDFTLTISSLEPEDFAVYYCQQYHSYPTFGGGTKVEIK ) = 8.72

The values you see were collected from patent US20250368745A1.
